Entries annotated with measured half-life
- assay.protocol: Stability of peptides in human plasma
- Format: in vitro ADME
- assay.context: human, plasma
Where a SMILES comes first, the peptide text is derived from it. [ ]: non-standard residue; d: D form. ξ: configuration not given here. Arg(NO2) = N=C(NCCC[C@H](N)C(=O)O)N[N+](=O)[O-]; ξαMePhe(2,6-F2) = CC(N)(Cc1c(F)cccc1F)C(=O)O; ξαMePhe(2-F) = CC(N)(Cc1ccccc1F)C(=O)O; hArg = N=C(N)NCCCC[C@H](N)C(=O)O; ξαMeF = CC(N)(Cc1ccccc1)C(=O)O; Nle = CCCC[C@H](N)C(=O)O; ξαMeP = CC1(C(=O)O)CCCN1; Ac5c = NC1(C(=O)O)CCCC1; Aib = CC(C)(N)C(=O)O
Value expressed in h; do not type the unit.

{"columns": ["compound", "measure.unit", "data.value"],
 "data": [
  ["CCCC[C@H](NC(=O)C(C)(Cc1ccccc1F)NC(=O)[C@H](CCC(N)=O)NC(=O)[C@@H](NC(=O)[C@H](CCC(=O)O)NC(=O)C(C)(C)NC(=O)[C@@H](NC(=O)C(C)(C)N)C(C)C)[C@@H](C)CC)C(=O)N[C@@H](Cc1c[nH]cn1)C(=O)N[C@@H](CCC(N)=O)C(=O)N[C@@H](CCCCNC(=N)N)C(=O)N1CCCC1(C)C(=O)N[C@@H](CCCCN)C(=O)NC(C)(Cc1ccccc1)C(N)=O (stereo partly drawn) [Seq. ID. 25] (H-[Aib]V[Aib]EIQ[ξαMePhe(2-F)][Nle]HQ[hArg][ξαMeP]K[ξαMeF]-NH2)", "h", 8]
]}

Now consider the entry below.
Value of half-life reported for the compound CCCC[C@H](NC(=O)C(C)(Cc1c(F)cccc1F)NC(=O)[C@H](CCC(N)=O)NC(=O)[C@@H](NC(=O)[C@H](CCC(=O)O)NC(=O)C(C)(C)NC(=O)[C@@H](NC(=O)C1(N)CCCC1)C(C)C)[C@@H](C)CC)C(=O)N[C@@H](Cc1c[nH]cn1)C(=O)N[C@@H](CCC(N)=O)C(=O)N[C@@H](CCCCNC(=N)N)C(=O)NC(C)(C)C(=O)N[C@@H](CCCNC(=N)N[N+](=O)[O-])C(=O)NC(C)(Cc1ccccc1F)C(N)=O (stereo partly drawn) [Seq. ID. 260] (H-[Ac5c]V[Aib]EIQ[ξαMePhe(2,6-F2)][Nle]HQ[hArg][Aib][Arg(NO2)][ξαMePhe(2-F)]-NH2) is 8

---

- assay.protocol: Stability of peptides in simulated gastric fluid (pH 1.5; HCl, NaCl and Pepsin)
- Type: in vitro ADME
- assay.context: simulated gi fluid, pH 1.5
Where a SMILES comes first, the peptide text is derived from it. [ ]: non-standard residue; d: D form. ξ: configuration not given here. ξαMePhe(2,6-F2) = CC(N)(Cc1c(F)cccc1F)C(=O)O; ξαMePhe(2-F) = CC(N)(Cc1ccccc1F)C(=O)O; ξαMeW = CC(N)(Cc1c[nH]c2ccccc12)C(=O)O; hhPhe = N[C@@H](CCCc1ccccc1)C(=O)O; hArg = N=C(N)NCCCC[C@H](N)C(=O)O; ξαMeNle = CCCCC(C)(N)C(=O)O; Nle = CCCC[C@H](N)C(=O)O; ξαMeP = CC1(C(=O)O)CCCN1; Ac3c = NC1(C(=O)O)CC1; Aib = CC(C)(N)C(=O)O
reported.endpoint: half-life (min)
The reply should contain only the number, in min.

{"columns": ["compound", "measure.unit", "half-life"],
 "data": [
  ["CCCC[C@H](NC(=O)C(C)(Cc1c(F)cccc1F)NC(=O)[C@H](CCC(N)=O)NC(=O)[C@@H](NC(=O)[C@H](CCC(=O)O)NC(=O)C(C)(C)NC(=O)[C@@H](NC(=O)C1(N)CC1)C(C)C)[C@@H](C)CC)C(=O)N[C@@H](Cc1c[nH]cn1)C(=O)N[C@@H](CCC(N)=O)C(=O)N[C@@H](CCCCNC(=N)N)C(=O)N1CCCC1(C)C(=O)N[C@@H](CCCCN)C(=O)NC(C)(Cc1ccccc1F)C(N)=O (stereo partly drawn) [Seq. ID. 75] (H-[Ac3c]V[Aib]EIQ[ξαMePhe(2,6-F2)][Nle]HQ[hArg][ξαMeP]K[ξαMePhe(2-F)]-NH2)", "min", 30]
]}

Lab book: half-life of CCCCC(C)(NC(=O)[C@H](CC(C)C)NC(=O)[C@H](CCC(N)=O)NC(=O)[C@@H](NC(=O)[C@H](CCC(=O)O)NC(=O)C(C)(C)NC(=O)[C@@H](NC(=O)C1(N)CC1)C(C)C)[C@@H](C)CC)C(=O)N[C@@H](Cc1c[nH]cn1)C(=O)N[C@@H](CCC(N)=O)C(=O)N[C@@H](CCCCNC(=N)N)C(=O)N[C@@H](C)C(=O)N[C@@H](CCCCNC(=N)N)C(=O)NC(C)(Cc1c[nH]c2ccccc12)C(=O)N[C@@H](CCCc1ccccc1)C(N)=O (stereo partly drawn) [Seq. ID. 945] (H-[Ac3c]V[Aib]EIQL[ξαMeNle]HQ[hArg]A[hArg][ξαMeW][hhPhe]-NH2) noted as 30

---

- assay.protocol: Stability of peptides in simulated intestinal fluid (pH 7.5)
- Assay type: in vitro ADME
- assay.context: simulated intestinal fluid, 24 h, 2 μM, pH 7.5
Where a SMILES comes first, the peptide text is derived from it. [ ]: non-standard residue; d: D form. ξ: configuration not given here. ξαMeBip(2'-Et,4'-OMe) = CCc1cc(OC)ccc1-c1ccc(CC(C)(N)C(=O)O)cc1; Arg(NO2) = N=C(NCCC[C@H](N)C(=O)O)N[N+](=O)[O-]; ξαMePhe(2-F) = CC(N)(Cc1ccccc1F)C(=O)O; hhPhe = N[C@@H](CCCc1ccccc1)C(=O)O; hArg = N=C(N)NCCCC[C@H](N)C(=O)O; hCit = NC(=O)NCCCC[C@H](N)C(=O)O; Nle = CCCC[C@H](N)C(=O)O; Ac5c = NC1(C(=O)O)CCCC1; Aib = CC(C)(N)C(=O)O
Item-by-item account of % degradation of peptides in 24 h when incubated with simulated intestinal fluid
Note: unit % is implicit; provide only the numeric part.

{"columns": ["compound", "data.value"],
 "data": [
  ["CCc1cc(OC)ccc1-c1ccc(CC(C)(NC(=O)[C@H](CCCCN)NC(=O)[C@H](C)NC(=O)[C@H](CCCCNC(=N)N)NC(=O)[C@H](CCC(N)=O)NC(=O)[C@H](Cc2c[nH]cn2)NC(=O)[C@H](CCSC)NC(=O)[C@H](CC(C)C)NC(=O)[C@H](CCC(N)=O)NC(=O)[C@@H](NC(=O)[C@H](CCC(=O)O)NC(=O)C(C)(C)NC(=O)[C@@H](NC(=O)C(C)(C)N)C(C)C)[C@@H](C)CC)C(=O)N[C@@H](CCCc2ccccc2)C(N)=O)cc1 (some centres unmarked) [Seq. ID. 890] (H-[Aib]V[Aib]EIQLMHQ[hArg]AK[ξαMeBip(2'-Et,4'-OMe)][hhPhe]-NH2)", "00"]
]}

Please examine the following record next.
% degradation of peptides in 24 h when incubated with simulated intestinal fluid measured on CCCC[C@H](NC(=O)C(C)(Cc1ccccc1F)NC(=O)[C@H](CCC(N)=O)NC(=O)[C@@H](NC(=O)[C@H](CCC(=O)O)NC(=O)C(C)(C)NC(=O)[C@@H](NC(=O)C1(N)CCCC1)C(C)C)[C@@H](C)CC)C(=O)N[C@@H](Cc1c[nH]cn1)C(=O)N[C@@H](CCC(N)=O)C(=O)N[C@@H](CCCCNC(N)=O)C(=O)NC(C)(C)C(=O)N[C@@H](CCCNC(=N)N[N+](=O)[O-])C(=O)NC(C)(Cc1ccccc1F)C(N)=O (some centres unmarked) [Seq. ID. 460] (H-[Ac5c]V[Aib]EIQ[ξαMePhe(2-F)][Nle]HQ[hCit][Aib][Arg(NO2)][ξαMePhe(2-F)]-NH2) = 40

---

- assay.protocol: Stability of peptides in human liver microsomes
- Format: in vitro ADME
- assay.context: human, microsomes, 24 h, 2 μM, pH 7.8
Where a SMILES comes first, the peptide text is derived from it. [ ]: non-standard residue; d: D form. ξ: configuration not given here. ξαMePhe(2,6-F2) = CC(N)(Cc1c(F)cccc1F)C(=O)O; ξαMePhe(2-F) = CC(N)(Cc1ccccc1F)C(=O)O; Nle = CCCC[C@H](N)C(=O)O; Aib = CC(C)(N)C(=O)O
reported.endpoint: % degradation of peptides in 24 h when incubated with liver microsomes (%)
# unit: % | format: bare number

Value of % degradation of peptides in 24 h when incubated with liver microsomes reported for the molecule CCCC[C@H](NC(=O)C(C)(Cc1ccccc1F)NC(=O)[C@H](CCC(N)=O)NC(=O)[C@@H](NC(=O)[C@H](CCC(=O)O)NC(=O)C(C)(C)NC(=O)[C@@H](NC(=O)C(C)(C)N)C(C)C)[C@@H](C)CC)C(=O)N[C@@H](Cc1c[nH]cn1)C(=O)N[C@@H](CCC(N)=O)C(=O)NC(C)(Cc1c(F)cccc1F)C(=O)NC(C)(C)C(=O)NC(C)(C)C(=O)NC(C)(Cc1ccccc1F)C(N)=O (stereo partly shown) [Seq. ID. 490] (H-[Aib]V[Aib]EIQ[ξαMePhe(2-F)][Nle]HQ[ξαMePhe(2,6-F2)][Aib][Aib][ξαMePhe(2-F)]-NH2) is 84
